Molecular target: Alpha-2C adrenergic receptor (Homo sapiens) (UniProt P18825)
Sequence (P18825 whole entry, looked up): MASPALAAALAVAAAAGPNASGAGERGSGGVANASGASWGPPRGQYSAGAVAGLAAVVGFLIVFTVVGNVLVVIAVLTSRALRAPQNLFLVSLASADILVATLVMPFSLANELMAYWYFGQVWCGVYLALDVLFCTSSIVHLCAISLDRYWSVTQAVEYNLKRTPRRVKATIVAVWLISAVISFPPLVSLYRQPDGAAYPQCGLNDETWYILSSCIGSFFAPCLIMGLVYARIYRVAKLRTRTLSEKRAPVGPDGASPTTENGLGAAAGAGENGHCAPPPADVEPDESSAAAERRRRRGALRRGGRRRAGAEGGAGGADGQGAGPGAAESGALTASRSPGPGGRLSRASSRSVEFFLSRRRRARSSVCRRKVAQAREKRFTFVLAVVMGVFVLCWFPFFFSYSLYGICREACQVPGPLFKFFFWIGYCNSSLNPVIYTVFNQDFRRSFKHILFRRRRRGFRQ
Assay: compounds altering alpha2C-coupled GIRK flux – cell-based, HEK293 alpha2C/GIRK1/2, thallium flux, primary screen (AID 624);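 also: slope of fluorescence ratio to pre-addition baseline per second over 15 to 24 s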
Conditions: thallium flux BTC fluorescence, at 10 µM, actives lie on both sides
slope overview
Please state the value as a number alone, without comment.

Consider the following illustrative entries.
>  <compound>
CCN(CCCNS(=O)(=O)c1ccc2c(c1)oc(=O)n2C)c1cccc(C)c1

>  <slope>
0.00612

$$$$
>  <compound>
CCNCC(O)COCC(O)CNCC (configuration not stated)

>  <slope>
0.0061

$$$$
>  <compound>
CC1CN(C(=O)c2cc3cc(Cl)cc(Cl)c3oc2=O)CC(C)O1 (configuration not stated)

>  <slope>
0.00693

$$$$
>  <compound>
COC(=O)c1ccc(CSc2nc3c(cnn3-c3ccc(F)cc3)c(=O)[nH]2)o1

>  <slope>
0.00536

$$$$
>  <compound>
Cc1ccc(-n2ncc3c(=O)[nH]c(SCC(=O)N4CCN(c5ccccc5)CC4)nc32)cc1

>  <slope>
0.00346

$$$$

Assign slope to the following record: `Cc1nn(-c2ccc(F)cc2)c2sc(C(=O)O)cc12` 0.00627

Input `Cc1csc(NC(=O)c2cccs2)n1` , output reported slope. 0.00677

Name the recorded slope of the item CC(Sc1nnnn1C)C(=O)Nc1ccc(Oc2ccccc2)cc1 (configuration not stated) in your answer. 0.00778

Given the compound Cc1ccc2c(c1)C1CCCC3C1N2CC(=O)N3Cc1ccccc1 (configuration not stated) , write its reported slope. 0.00336

Could you please provide reported slope for `CCc1nc(SCc2cc(Cl)ccc2OC)n[nH]1` ? Thanks! 0.00554

Return reported slope. Input compound: `Cc1cc(Nc2ccc(C(=O)O)cc2)n2nc(C)nc2n1` 0.00685

Quickly give me recorded slope for `O=S(=O)(c1ccc(F)c(Cl)c1)N1CCCC1` 0.00653

Give the measured slope for `CCOC(=O)N1CCC(NC(=O)c2cc(C(=O)NC3CCCC3)ccc2CO)CC1` 0.00598

Supply slope value. Item: `CCCCn1c(NC(=O)CC)c(C#N)c2nc3ccccc3nc21` 0.00421

Query slope for `C=CCn1c(SCC(=O)O)nnc1-c1cccc(Cl)c1` 0.00296

Report slope for `CCOc1ccccc1NC(=O)CSc1nnc2c(CC)c(C)nc(N)n12` 0.00576

###

Assay: reduction of polyQ htt aggregates in cells – imaging, exon1htt(103Q)mCFP cells, high-content imaging, primary screen (AID 483);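 also: compound exposure lasted 3 days before fixation; percent of the per-plate median nuclei count of sample wells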
Conditions: exon1htt(103Q)mCFP cell line, aggregate imaging, at 2 µM; measured here: cell count, toxicity
Entries annotated with measured nuclei count

Examples with answers:
>  <compound>
COCCOC(=O)/C=C1/NC(=O)CS1

>  <nuclei count>
100%

$$$$
>  <compound>
COc1ccc(Oc2c(C)oc3cc(OC(=O)N4CCOCC4)ccc3c2=O)cc1

>  <nuclei count>
95.2%

$$$$
>  <compound>
CCCCC(=O)NCCc1ccc(S(N)(=O)=O)cc1

>  <nuclei count>
101%

$$$$

Give nuclei count for the following compound: `COc1ccc(-c2nc(C#N)c(N3CCOCC3)o2)cc1OC` 92.9%

Name the recorded nuclei count of the compound listed here: `Cc1cc(C(F)(F)F)nc(NCc2cccnc2)n1` 97.7%

Tell me its nuclei count given `COCCn1c(C)cc(C(=O)CSc2nc3ccccc3c(=O)[nH]2)c1C` as the entry. 95.3%

Return nuclei count (reported value) for this compound: `CCn1cc(C(=O)NCCCOC)c(=O)c2cc(S(=O)(=O)N(C)C3CCCCC3)ccc21` 74.5%

Note nuclei count for the compound shown: Oc1ccc(N2CCN(C(c3ccncc3)c3nnnn3C3CCCC3)CC2)cc1 (stereo not drawn) 101%

Give the reported nuclei count for this compound. `CCCC1(CCC)NC(=O)NC1=O` 65.5%

Please give measured nuclei count of the following entry: `CCn1nc(C)c(NC(=O)c2cc(Br)ccc2Cl)c1C` 111%

Read off the recorded nuclei count for Cc1cccc(C2CC(c3ccc(Br)cc3)Nc3nc(N)nn32)c1 (stereo not drawn) 95.1%

Provide only the value of recorded nuclei count for `COc1ccc(-c2ccc(-c3noc(-c4cccs4)n3)c(OC)n2)cc1` 95.6%

Provide nuclei count value for the following compound: `Cc1cc(C)n(S(=O)(=O)c2cc(C(=O)O)c(Cl)cc2Cl)n1` 110%

# return recorded nuclei count for entry `O=C(Cn1c(-c2cncs2)nc2ccccc21)NC1CCCC1` 114%

Recall and state the measured nuclei count for `O=C(Nc1ccc(Cl)cn1)c1cccnc1` . 107%

Annotate the compound `O=C(NCCN1CCCCCC1)c1ccc(CS(=O)(=O)c2ccc(Br)cc2)o1` with its measured nuclei count. 98.6%

###

Measured inhibition accompanies every entry in the list below.
Assay: TLR3 IRF3 reporter activation blockers – cell-based, poly I:C stimulus, luciferase, 10K MLSCN set, primary screen (AID 602277)
Details: HEK293-TLR3 RL24 IRF3 luciferase reporter, at 10 µM, stronger effect = higher value
Could you give me the number in %? Just the number is fine.

>  <compound>
Cc1ccc(N2CC(C)Cn3c2nc2c3c(=O)n(CC(=O)OCc3ccccc3)c(=O)n2C)cc1C (centres undefined)

>  <observed result>
16.6

$$$$

Answer with reported inhibition of `COc1c(C(=O)Nc2c(C)n(C)n(-c3ccccc3)c2=O)ccc2ccccc12` 11.2

Provide measured inhibition value, entry: Cc1ccc(NC(=O)C2CCCN(S(=O)(=O)c3cnc[nH]3)C2)cc1C (centres undefined) 6.37

# return recorded inhibition for entry `COc1ccc(CCNC(=O)c2cnc3scc(C)n3c2=O)cc1OC` 33.9

Quickly give me recorded inhibition for Cc1ccc(NC(=O)C2CCCN2S(=O)(=O)c2cccc3cccnc23)cc1F (centres undefined) 33.6

Indicate the recorded inhibition value for this compound: `O=C(Nc1nc(-c2cccs2)cs1)c1cccc(S(=O)(=O)N2CCCCC2)c1` -7.26

Fill in reported inhibition for this entry: CC(CCC(=O)Nc1nncs1)C(=O)O (centres undefined) 20.3

For the compound `O=C(Nc1nc2c(s1)CCc1ccccc1-2)c1cccs1` , give its measured inhibition value. -8.29

Give inhibition for the following compound: `Cc1ccc(Cn2c(CN3CCOCC3)nc3c2c(=O)n(C)c(=O)n3C)cc1` 26.6

###

Assay: reduction of polyQ htt aggregates in cells – imaging, exon1htt(103Q)mCFP cells, high-content imaging, primary screen (AID 483);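 also: compound exposure lasted 3 days before fixation; percent of the per-plate median nuclei count of sample wells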
Conditions: exon1htt(103Q)mCFP cell line, aggregate imaging, at 2 µM; measured here: cell count, toxicity
measured parameter: nuclei count (%)
# unit: % | format: bare number

Consider the following illustrative entries.
>  <compound>
CCN(CC)C1CCCCC1NS(=O)(=O)c1ccc(Cl)cc1 (stereo not given)

>  <nuclei count / %>
96.8

$$$$
>  <compound>
O=C(c1cc(-c2cccc(O)c2)on1)N1CCN(C(c2ccccc2)c2ccccc2)CC1

>  <nuclei count / %>
96.8

$$$$
>  <compound>
CCc1nnc(NC(=O)c2ccc(COc3ccc(C)cc3)o2)s1

>  <nuclei count / %>
109

$$$$
>  <compound>
CC(=O)c1coc2ccc(OCC(=O)O)cc12

>  <nuclei count / %>
110

$$$$
>  <compound>
O=c1c(-c2ccccc2)coc2c(CN3CCOCC3)c(O)ccc12

>  <nuclei count / %>
108

$$$$
>  <compound>
CC(=O)N1CCN(S(=O)(=O)c2cccc(C(=O)Nc3ccc4c(c3)CCC4)c2)CC1

>  <nuclei count / %>
118

$$$$
>  <compound>
CCn1cc(C(=O)O)c(=O)c2cc(F)c(N3CCN(C(=O)Nc4ccccc4)CC3)cc21

>  <nuclei count / %>
68.8

$$$$
>  <compound>
COc1ccc(Cl)cc1S(=O)(=O)N1CCN(c2ccc(F)cc2)CC1

>  <nuclei count / %>
101

$$$$

Give recorded nuclei count. O=C1c2ccccc2C(Nc2ccc(F)c(Cl)c2)N1Cc1ccco1 (stereo not given) 110

Indicate its recorded nuclei count; the compound in question is `COc1cccc(NC(=O)COC(=O)c2cccnc2)c1` 105

###

Test: blockers of RIG-like receptor reporter activation – cell-based, Sendai virus stimulus, luciferase, 10K MLSCN set, TLR/RLR signaling modifier project, primary screen (AID 602276);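 also: firefly luciferase from ISG56 promoter only with Renilla not read in this screen; 0% = Sendai virus plus DMSO and 100% = medium plus DMSO without virus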
Conditions: HEK293 RL24 IRF3 luciferase reporter, at 10 µM, stronger effect = higher value
Consider the following molecules and their measured inhibition readings.
Your answer is read as %, so omit the unit and give the number.

Worked cases, inhibition given:
>  <molecule>
COc1ccc(-n2ncc3c(NCCCN4CCOCC4)ncnc32)cc1

>  <observed result>
44.5

$$$$
>  <molecule>
O=C(CCCCCN1C(=O)CCC1=O)NCc1ccccc1

>  <observed result>
12.6

$$$$
>  <molecule>
CCc1c(C)nc2ncnn2c1N1CCC(C(=O)NCc2cccc(OC)c2)CC1

>  <observed result>
5.24

$$$$
>  <molecule>
CC(=O)Nc1c(C(=O)O)[nH]c2ccccc12

>  <observed result>
0.607

$$$$
>  <molecule>
Cc1ccc(S(=O)(=O)N2C(=O)CCC2C(=O)Nc2ccc3c(c2)OCCO3)cc1 (configuration not stated)

>  <observed result>
10.3

$$$$

Answer with reported inhibition of C=CC(O)(C#CCN(CC)CC)c1ccccc1 (configuration not stated) 4.67

Using the record for `CCOC(=O)CC(=O)c1cc(OC)c(OC)c(OC)c1` , state its measured inhibition. 5.89

# return recorded inhibition for input COc1cccc(C2CC(c3ccc(F)cc3)Nc3nc(N)nn32)c1 (configuration not stated) -17.7

Supply inhibition value. Item: `CCOc1ccc(NC(=O)CSc2nccn2C)cc1` -18.3
